Settings: cell viability/%
Where a SMILES comes first, the peptide text is derived from it. [ ]: non-standard residue; d: D form. The star is where a group is joined. NHCH2CH2OH = OCCN*; For = O=C*
Metric: viability

# Compound, Observed value
records = [
    ("CC(C)C[C@@H](NC(=O)[C@H](C)NC(=O)CNC(=O)[C@@H](NC=O)C(C)C)C(=O)N[C@@H](C)C(=O)N[C@@H](C(=O)N[C@H](C(=O)N[C@H](CC(C)C)C(=O)N[C@@H](Cc1c[nH]c2ccccc12)C(=O)N[C@H](CC(C)C)C(=O)N[C@@H](Cc1c[nH]c2ccccc12)C(=O)N[C@@H](C(=O)N[C@@H](Cc1c[nH]c2ccccc12)C(=O)N[C@@H](C(=O)N[C@@H](Cc1c[nH]c2ccccc12)C(=O)NCCO)[C@H](C)O)C(C)C)C(C)C)[C@H](C)O [compound 113] (For-VGA[dL]A[dT]V[dL]W[dL]W[dV]W[dT]W-NHCH2CH2OH)", "100%"),
    ("CC(C)C[C@@H](NC(=O)[C@H](C)NC(=O)CNC(=O)[C@@H](NC=O)C(C)C)C(=O)N[C@@H](C)C(=O)N[C@H](CC(C)C)C(=O)N[C@H](C(=O)N[C@H](CC(C)C)C(=O)N[C@@H](Cc1c[nH]c2ccccc12)C(=O)N[C@H](CC(C)C)C(=O)N[C@@H](Cc1c[nH]c2ccccc12)C(=O)N[C@H](CC(C)C)C(=O)N[C@@H](Cc1c[nH]c2ccccc12)C(=O)N[C@@H](C(=O)N[C@@H](Cc1c[nH]c2ccccc12)C(=O)NCCO)[C@H](C)O)C(C)C [compound 5006] (For-VGA[dL]A[dL]V[dL]W[dL]W[dL]W[dT]W-NHCH2CH2OH)", "100%"),
]
